The reported numbers originate from patent US20030236190A1.

- Target desc: T1, Soluble IGF-1R (R&D Systems, Cat. # 391-GR/CF); recombinant human IGF-1R (human, UniProt P08069 31-935)
- T1 construct: extracellular domain; Eu3+-labelled in the TR-FRET assays; also called sIGF-1R; rhIGF-1R
- Experiment summary: phage ELISA vs milk
Label yes (1) when Ratio over Background < 20 fold; otherwise no (0).

Please review the following examples before continuing.
[
  {
    "Binder": "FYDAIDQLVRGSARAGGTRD [R20α-3-2082-IR]",
    "Class": "no (0)"
  },
  {
    "Binder": "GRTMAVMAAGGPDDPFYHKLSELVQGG [B6Hα-2-D6-IR]",
    "Class": "yes (1)"
  },
  {
    "Binder": "QAVQPGFHEEFYDWFVRQVSTGVGGG [H2CA-4-H4-IGFR]",
    "Class": "yes (1)"
  }
]

Exam item: Threshold test, Ratio over Background < 20 fold: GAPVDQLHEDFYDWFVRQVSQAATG [E2CA-2-B2-IGFR]
Marked response: yes (1)

Exam item: Threshold test, Ratio over Background < 20 fold: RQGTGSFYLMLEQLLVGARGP [20E2B-4-G11-IGFR]
Marked response: yes (1)

Exam item: Threshold test, Ratio over Background < 20 fold: EAASLGSQDRNFYDWFVRQVV [A6S-2-D11-IR]
Marked response: no (0)
